Measured protein stability index by item
B1: MIA2 (parent)
chain: SVIEPVQESSFRSRKIAVEDENDL

Variants of: B1
Assay: protein stability index of a GFP-peptide fusion (GPS, HEK-293T) (PSI 1-6); higher = more stable;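 also: lentivirally expressed fusions sorted by FACS into six bins by GFP to DsRed ratio, PSI derived from sequencing read proportions per bin multiplied by bin number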
Settings: c terminus: a fixed tail appended
API doc: respond with a numeric literal and nothing else, no unit.

Some solved cases for reference:
>>> df
   variant_code  measured
0           E8S      4.42
1           V6D      5.65
2          F11V      5.16
3           E4C      5.08
4          I16L      5.13
5          V18G      5.18

For the variant shown here, S13R , give the reported protein stability index.
5.53

For the variant shown here, R12P , give the reported protein stability index.
6

For the variant shown here, S10M , give the reported protein stability index.
4.89

For the variant shown here, R14M , give the reported protein stability index.
5.02

For the variant shown here, E21K , give the reported protein stability index.
5.05

For the variant shown here, E8G , give the reported protein stability index.
5.28

For the variant shown here, R12M , give the reported protein stability index.
5.41
